Target: CYP3A4 (Homo sapiens)
Construct: host or cells: human liver microsomes
Sequence (P08684 whole entry): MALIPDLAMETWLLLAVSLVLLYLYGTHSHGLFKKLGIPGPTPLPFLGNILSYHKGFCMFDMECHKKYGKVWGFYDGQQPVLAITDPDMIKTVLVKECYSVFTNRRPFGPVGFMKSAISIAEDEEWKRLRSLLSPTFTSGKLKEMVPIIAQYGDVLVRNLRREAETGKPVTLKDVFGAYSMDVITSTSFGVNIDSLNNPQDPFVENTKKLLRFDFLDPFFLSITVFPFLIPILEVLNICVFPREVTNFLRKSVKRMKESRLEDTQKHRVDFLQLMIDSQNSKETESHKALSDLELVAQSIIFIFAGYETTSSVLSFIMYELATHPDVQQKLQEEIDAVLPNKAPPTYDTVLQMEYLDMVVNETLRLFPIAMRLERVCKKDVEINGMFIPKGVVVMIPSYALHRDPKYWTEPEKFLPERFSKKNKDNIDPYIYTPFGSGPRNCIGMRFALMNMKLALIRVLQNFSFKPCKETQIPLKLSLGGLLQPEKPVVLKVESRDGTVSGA
Experiment: CYP3A4 inhibition (midazolam metabolism in human liver microsomes)
Format: in vitro ADME
Conditions: substrate midazolam, read-out: CYP 3A4Ki
pKi: −log10 of the molar value.
METRIC: pKi

In [3]: df
Out[3]:
                                   molecule       reading
0  Cc1csc([C@H]2CCCN2C(=O)c2cc(CF)cc(C(=O)N[C@@H](Cc3ccccc3)[C@H](O)[C@H]3C[C@@H](OCc4ccccc4)CN3)c2)n1 [1-36]        < 5.00
1  Cc1coc([C@H]2CCCN2C(=O)c2cccc(C(=O)N[C@@H](Cc3ccccc3)[C@H](O)CNCc3cncc(C(C)(C)C)c3)c2)n1 [2-4, reference compound]        > 6.00
2  Cc1csc(CN(C(=O)c2cccc(C(=O)N[C@@H](Cc3ccccc3)[C@H](O)CNCc3cccc(C(F)(F)F)c3)c2)C2CC2)n1 [2-9, reference compound]        > 6.00
3  Cc1csc([C@H]2CCCN2C(=O)c2cc(C(=O)N[C@@H](Cc3ccccc3)[C@H](O)[C@H]3CCCN3)cc(N(C)S(C)(=O)=O)c2)n1 [1-23]  5.00 to 5.30
4  Cc1csc([C@H]2CCCN2C(=O)c2cc(C(=O)N[C@@H](Cc3ccccc3)[C@H](O)[C@H]3CCCN3)cc(C(F)F)c2)n1 [1-14]  5.30 to 6.00
5  Cc1csc([C@H]2CCCN2C(=O)c2cccc(C(=O)N[C@@H](Cc3ccccc3)[C@H](O)[C@H]3CCCN3)c2)n1 [1-40]  5.00 to 5.30

###

Molecular target: cathepsin D (Homo sapiens, UniProt P07339)
Sequence (P07339 65-412, species assumed): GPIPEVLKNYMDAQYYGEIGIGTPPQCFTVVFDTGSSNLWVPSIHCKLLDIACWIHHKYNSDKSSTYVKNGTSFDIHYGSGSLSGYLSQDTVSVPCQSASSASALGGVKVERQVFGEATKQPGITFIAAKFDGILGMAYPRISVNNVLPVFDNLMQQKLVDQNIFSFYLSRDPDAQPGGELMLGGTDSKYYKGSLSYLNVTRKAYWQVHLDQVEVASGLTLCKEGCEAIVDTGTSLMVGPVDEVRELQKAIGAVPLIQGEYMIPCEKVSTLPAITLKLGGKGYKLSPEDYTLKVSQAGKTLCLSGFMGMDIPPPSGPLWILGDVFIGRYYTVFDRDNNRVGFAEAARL
Assay: Inhibition of cathepsin D activity (MALDI-TOF, substrate ELDLAVEFWHDR)
Assay type: biochemical
Settings: substrate peptide ELDLAVEFWHDR, pH 4.1, 37 degrees C, read-out: CD Ki
pKi: −log10 of the molar value.
METRIC: pKi

In [3]: df
Out[3]:
                                  structure                               target_desc  metric  reading
0  Cc1csc([C@H]2CCCN2C(=O)c2cccc(C(=O)N[C@@H](Cc3cc(F)cc(F)c3)[C@H](O)[C@H]3CCCN3)c2)n1  cathepsin D (Homo sapiens, UniProt P07339)     pKi   < 6.30
1  Cc1csc([C@H]2CCCN2C(=O)c2cc(C(=O)N[C@@H](Cc3ccccc3)[C@H](O)[C@H]3CCCN3)cc(-c3ncco3)c2)n1  cathepsin D (Homo sapiens, UniProt P07339)     pKi   < 6.30
2  C=CCO[C@H]1CN[C@@H]([C@@H](O)[C@H](Cc2ccccc2)NC(=O)c2cc(C(=O)N3CCC[C@@H]3c3nc(C)cs3)cc(-c3ncco3)c2)C1  cathepsin D (Homo sapiens, UniProt P07339)     pKi   > 6.52
3  Cc1csc([C@H]2CCCN2C(=O)c2cc(C(=O)N[C@@H](Cc3ccccc3)[C@H](O)[C@H]3CCCN3)cc(-c3cccc(C(F)(F)F)c3)c2)n1  cathepsin D (Homo sapiens, UniProt P07339)     pKi   < 6.30
4  Cc1cc(C(=O)N[C@@H](Cc2cc(F)cc(F)c2)[C@H](O)[C@H]2CCCN2)cc(C(=O)N2CCC[C@@H]2c2nc(C)cs2)c1  cathepsin D (Homo sapiens, UniProt P07339)     pKi   < 6.30
5  Cc1csc([C@H]2CCCN2C(=O)c2cc(C(=O)N[C@@H](Cc3ccccc3)[C@H](O)[C@H]3CCCN3)cc(N3CCCCS3(=O)=O)c2)n1  cathepsin D (Homo sapiens, UniProt P07339)     pKi   < 6.30

###

Listed below: pIC50 values for each entry.
Target: memapsin 2 (Cricetulus griseus, UniProt G3IAK4)
Construct: endogenous in cells
Sequence (G3IAK4 22-501): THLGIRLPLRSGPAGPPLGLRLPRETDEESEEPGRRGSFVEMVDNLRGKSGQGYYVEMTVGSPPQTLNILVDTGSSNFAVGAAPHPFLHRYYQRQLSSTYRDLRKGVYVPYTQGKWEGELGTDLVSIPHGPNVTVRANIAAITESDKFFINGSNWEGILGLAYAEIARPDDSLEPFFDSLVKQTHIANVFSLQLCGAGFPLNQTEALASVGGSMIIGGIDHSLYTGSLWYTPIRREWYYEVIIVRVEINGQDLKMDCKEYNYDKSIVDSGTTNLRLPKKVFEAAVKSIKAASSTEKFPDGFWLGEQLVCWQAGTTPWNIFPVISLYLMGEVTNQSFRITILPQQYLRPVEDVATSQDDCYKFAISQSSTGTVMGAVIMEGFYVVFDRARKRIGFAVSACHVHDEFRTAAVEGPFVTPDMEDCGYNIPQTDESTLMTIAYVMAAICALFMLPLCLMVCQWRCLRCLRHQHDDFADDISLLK
Assay: Cellular Aβ IC50 determination (Aβ40 sandwich ELISA)
Conditions: CHO cells over-expressing human APP695 with London and Swedish mutations, 24 h, read-out: M2 IC50
pIC50: −log10 of the molar value.
METRIC: pIC50

>>> df
                                   compound  reading
0  C=C(C)c1cccc(CNC[C@@H](O)[C@H](Cc2ccccc2)NC(=O)c2cccc(C(=O)N3CCC[C@@H]3c3nc(C)co3)c2)c1 [2-6, reference compound]   > 6.30
1  Cc1coc([C@H]2CCCN2C(=O)c2cc(C(=O)N[C@@H](Cc3ccccc3)[C@H](O)[C@H]3CCCN3)cc(-c3cnccn3)c2)n1 [1-21]   > 6.30
2  Cc1csc(CN(C)C(=O)c2cccc(C(=O)N[C@@H](Cc3ccccc3)[C@H](O)[C@H]3CCCN3)c2)n1 [1-2]   < 6.00
3  Cc1cc(C(=O)N[C@@H](Cc2ccccc2)[C@H](O)CNCc2cncc(C(C)C)c2)cc(C(=O)N2CCC[C@@H]2c2nc(C)cs2)c1 [2-8, reference compound]   > 6.30
4  Cc1csc([C@H]2CCCN2C(=O)c2cc(CF)cc(C(=O)N[C@H](Cc3ccccc3)[C@H](O)[C@H]3C[C@@H](OCc4ccccc4)CN3)c2)n1 [1-45]   < 6.00
5  Cc1csc(CN(C)C(=O)c2cc(C(=O)N[C@@H](Cc3ccccc3)[C@H](O)[C@H]3CCCN3)cc(-c3cnco3)c2)n1 [1-12]   < 6.00

###

Listed next: entries and their corresponding Ki.
Molecular target: memapsin 2 (Homo sapiens, UniProt P56817)
Sequence (P56817 46-501): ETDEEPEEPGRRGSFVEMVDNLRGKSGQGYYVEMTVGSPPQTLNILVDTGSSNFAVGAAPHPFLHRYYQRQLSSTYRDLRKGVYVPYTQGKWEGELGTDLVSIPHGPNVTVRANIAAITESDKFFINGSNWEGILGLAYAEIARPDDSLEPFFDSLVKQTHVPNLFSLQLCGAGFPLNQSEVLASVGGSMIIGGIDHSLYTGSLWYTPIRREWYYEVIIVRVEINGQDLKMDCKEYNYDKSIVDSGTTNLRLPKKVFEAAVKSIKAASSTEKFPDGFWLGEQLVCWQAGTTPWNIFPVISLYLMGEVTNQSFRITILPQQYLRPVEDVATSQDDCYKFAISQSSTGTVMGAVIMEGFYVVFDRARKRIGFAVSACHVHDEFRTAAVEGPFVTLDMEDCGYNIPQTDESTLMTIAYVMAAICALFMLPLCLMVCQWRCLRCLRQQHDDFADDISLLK
METRIC: Ki

MOLECULE	METRIC	READING
Cc1csc([C@H]2CCCN2C(=O)c2cc(C(=O)N[C@@H](Cc3ccccc3)[C@H](O)[C@H]3CCCN3)cc(N3CCC(F)(F)CC3)c2)n1 [1-46]	Ki	0.25 to 0.75 µM
Cc1coc([C@H]2CCCN2C(=O)c2cc(C(=O)N[C@@H](Cc3ccccc3)[C@H](O)[C@H]3CCCN3)cc(-c3cnccn3)c2)n1 [1-21]	Ki	< 0.25 µM
Cc1csc([C@H]2CCCN2C(=O)c2cc(C(=O)N[C@@H](Cc3ccccc3)[C@H](O)[C@H]3C[C@@H](OCc4ccccc4)CN3)cc(-n3cccc3)c2)n1 [1-25]	Ki	< 0.25 µM
C[C@@H](NC(=O)c1cc(C(=O)N[C@@H](Cc2ccccc2)[C@H](O)[C@H]2CCCN2)cc(N(C)S(C)(=O)=O)c1)c1ccccc1 [1-11]	Ki	< 0.25 µM
Cc1csc([C@H]2CCCN2C(=O)c2cccc(C(=O)N[C@@H](Cc3ccccc3)[C@H](O)CNCc3cccc(C(C)(C)C)c3)c2)n1 [2-10, reference compound]	Ki	< 0.25 µM
Cc1csc([C@H]2CCCN2C(=O)c2cc(C(=O)N[C@@H](Cc3cc(F)cc(F)c3)[C@H](O)[C@H]3CCCN3)cc(-c3cnccn3)c2)n1 [1-63]	Ki	< 0.25 µM
Cc1csc(CN(C(=O)c2cccc(C(=O)N[C@@H](Cc3ccccc3)[C@H](O)CNCc3cccc(C(F)(F)F)c3)c2)C2CC2)n1 [2-9, reference compound]	Ki	< 0.25 µM
Cc1csc([C@H]2CCCN2C(=O)c2cc(C(=O)N[C@@H](Cc3ccccc3)[C@H](O)[C@H]3CCCN3)cc(-c3ncco3)c2)n1 [1-19]	Ki	< 0.25 µM
Cc1cc(C(=O)N[C@@H](Cc2ccccc2)[C@H](O)CNCc2cncc(C(C)(C)C)c2)cc(C(=O)N2CCC[C@@H]2c2nc(C)co2)c1 [2-11, reference compound]	Ki	< 0.25 µM
Cc1csc([C@H]2CCCN2C(=O)c2cc(C(=O)N[C@@H](Cc3cc(F)cc(F)c3)[C@H](O)[C@H]3CCCN3)ccn2)n1 [1-61]	Ki	0.25 to 0.75 µM
CCCN(CCC)C(=O)c1cccc(C(=O)N[C@@H](Cc2ccccc2)[C@H](O)[C@H]2CCCN2)c1 [2-12, reference compound]	Ki	> 0.75 µM
O=C(N[C@@H](Cc1ccccc1)[C@H](O)[C@H]1CCCN1)c1cccc(CN2CCCC2=O)c1 [2-13, reference compound]	Ki	> 0.75 µM
Cc1coc([C@H]2CCCN2C(=O)c2cccc(C(=O)N[C@@H](Cc3ccccc3)[C@H](O)CNCc3cncc(C(C)(C)C)c3)c2)n1 [2-4, reference compound]	Ki	< 0.25 µM
Cc1csc([C@H]2CCCN2C(=O)c2cc(C(=O)N[C@@H](Cc3ccccc3)[C@H](O)[C@H]3CCCN3)cc([N+](=O)[O-])c2)n1 [1-55]	Ki	< 0.25 µM
Cc1csc([C@H]2CCCN2C(=O)c2cncc(C(=O)N[C@@H](Cc3ccccc3)[C@H](O)CNCc3cc(Cl)nc(N(C)C)c3)c2)n1 [2-1, reference compound]	Ki	< 0.25 µM
Cc1csc([C@H]2CCCN2C(=O)c2cccc(C(=O)N[C@@H](Cc3ccccc3)[C@@H](O)[C@H]3CCCN3)c2)n1 [1-80]	Ki	> 0.75 µM
Cc1coc([C@H]2CCCN2C(=O)c2cc(C(=O)N[C@@H](Cc3cc(F)cc(F)c3)[C@H](O)[C@H]3CCCN3)cc(-c3ncco3)c2)n1 [1-69]	Ki	< 0.25 µM
Cc1csc([C@H]2CCCN2C(=O)c2cc(C(=O)N[C@@H](Cc3ccccc3)[C@H](O)[C@H]3CCCN3)cc(C(F)F)c2)n1 [1-14]	Ki	< 0.25 µM
Cc1coc([C@H]2CCCN2C(=O)c2cc(C(=O)N[C@@H](Cc3ccccc3)[C@H](O)[C@H]3CCCN3)cc(-n3cccc3)c2)n1 [1-26]	Ki	< 0.25 µM
Cc1csc([C@H]2CCCN2C(=O)c2cc(Cl)cc(C(=O)N[C@@H](Cc3ccccc3)[C@H](O)[C@H]3CCCN3)c2)n1 [1-56]	Ki	< 0.25 µM
Cc1csc([C@H]2CCCN2C(=O)c2cc(C(=O)N[C@@H](Cc3ccccc3)[C@H](O)CNCc3cncc(C(C)C)c3)cc(-c3ccco3)c2)n1 [2-2, reference compound]	Ki	< 0.25 µM
COc1cc(C(=O)N[C@@H](Cc2ccccc2)[C@H](O)[C@H]2CCCN2)cc(C(=O)N2CCC[C@@H]2c2nc(C)cs2)c1 [1-34]	Ki	< 0.25 µM
CCn1cc(CNC[C@@H](O)[C@H](Cc2ccccc2)NC(=O)c2cc(C)cc(C(=O)N3CCC[C@@H]3c3nc(C)co3)c2)cn1 [2-5, reference compound]	Ki	< 0.25 µM
Cc1csc([C@H]2CCCN2C(=O)c2cc(C(=O)N[C@@H](Cc3ccccc3)[C@H](O)[C@H]3CCCN3)cc(-c3cccc(C(F)(F)F)c3)c2)n1 [1-43]	Ki	< 0.25 µM
